assay.system: Recombinant human His-tagged Kat6a protein (amino acids 194-810) (Homo sapiens)
Construct: Kat6a protein (amino acids 194-810); His
Sequence (Q92794 194-810): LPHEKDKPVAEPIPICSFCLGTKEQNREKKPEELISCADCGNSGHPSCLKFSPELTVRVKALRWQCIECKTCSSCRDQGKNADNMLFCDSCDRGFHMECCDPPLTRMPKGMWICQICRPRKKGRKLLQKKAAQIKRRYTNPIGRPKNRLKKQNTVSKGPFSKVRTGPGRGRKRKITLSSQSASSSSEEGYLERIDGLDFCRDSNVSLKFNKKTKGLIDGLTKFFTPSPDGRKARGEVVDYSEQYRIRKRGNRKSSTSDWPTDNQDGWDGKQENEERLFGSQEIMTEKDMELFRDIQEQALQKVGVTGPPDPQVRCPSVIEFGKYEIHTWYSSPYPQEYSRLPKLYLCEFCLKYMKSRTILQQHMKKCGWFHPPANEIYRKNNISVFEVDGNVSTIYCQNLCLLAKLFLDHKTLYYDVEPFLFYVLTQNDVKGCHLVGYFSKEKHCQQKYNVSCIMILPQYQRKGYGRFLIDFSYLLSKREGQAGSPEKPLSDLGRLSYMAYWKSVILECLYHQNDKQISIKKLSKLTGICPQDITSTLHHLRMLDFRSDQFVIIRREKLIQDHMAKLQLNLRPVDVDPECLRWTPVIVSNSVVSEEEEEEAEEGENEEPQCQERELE
test.summary: Kat6a activity assay (TR-FRET, acetylation of Histone-H4-derived peptide)
Format: biochemical
condition.set: 60 mins at 22° C., 220 nM H4 peptide, 600 nM Acetyl Coenzyme A, read-out: KAT6A - DPF/HAT domain IC50 [mol/l] (arithmetic mean)
endpoint.label: IC50

Study these solved cases before continuing.
| compound | assay.system | IC50 |
| --- | --- | --- |
| CCOc1ccccc1S(=O)(=O)NC(=O)c1cc2c(F)cc(N3CCC3C(F)F)cc2o1 (racemic) | Recombinant human His-tagged Kat6a protein (amino acids 194-810) (Homo sapiens) | 862 nM |
| Cc1ccc(OC2CCCC2)c(S(=O)(=O)NC(=O)c2cc3c(F)cc(N4CCC4)cc3o2)c1 | Recombinant human His-tagged Kat6a protein (amino acids 194-810) (Homo sapiens) | 21.2 nM |
| O=C(NS(=O)(=O)c1cccc2c1OCCO2)c1cc2c(F)cc(N3CCC3)cc2o1 | Recombinant human His-tagged Kat6a protein (amino acids 194-810) (Homo sapiens) | 34 nM |
| CCOc1ccccc1S(=O)(=O)NC(=O)c1cc2ccc(N3CC4(CC4)C3)cc2o1 | Recombinant human His-tagged Kat6a protein (amino acids 194-810) (Homo sapiens) | > 20000 nM |
| CC1(C)Cc2cccc(S(=O)(=O)NC(=O)c3cc4c(F)cc(N5CCC5)cc4o3)c2O1 | Recombinant human His-tagged Kat6a protein (amino acids 194-810) (Homo sapiens) | 55.1 nM |

Task item: Recorded IC50 of "O=C(NS(=O)(=O)c1cccc2c1OCCO2)c1cc2c(F)cc(N3CC(F)C3)cc2o1" , please.
Reply: 172 nM

Task item: Recorded IC50 of "CCCc1ccc2nc(Cl)c(S(=O)(=O)NC(=O)c3cc4c(F)cc(N5CCC5)cc4o3)n2n1" , please.
Reply: 91.5 nM

Task item: Recorded IC50 of "CCOc1ccccc1S(=O)(=O)NC(=O)c1cc2ccc(N3CC(c4ccccc4)C3)cc2o1" , please.
Reply: 6520 nM

###

Tested on: ESR1 transcription in MVLN cells
test.summary: MVLN reporter assay: repression of ESR1 transcription (luciferase signal)
Assay type: cell-based
condition.set: Homo sapiens, MVLN, 24 h, luciferase signal after 24 h, read-out: MVLN reporter assay, IC50 [M] (arithmetic mean)
endpoint.label: IC50 (M)
All answers are understood in M, so give the number only.

Study these solved cases before continuing.
| structure | reported.measurement |
| --- | --- |
| Cc1ccc(OC2CCCC2)c(S(=O)(=O)NC(=O)c2cc3c(F)cc(N4CCC4)cc3o2)c1 | 1.34e-07 |
| O=C(NS(=O)(=O)c1cccc2c1OC(F)(F)C(F)(F)O2)c1cc2c(F)cc(N3CCC3)cc2o1 | 2.91e-07 |
| CC(C)Oc1cccc(C(F)(F)F)c1S(=O)(=O)NC(=O)c1cc2c(F)cc(N3CCC3)cc2o1 | 3.56e-07 |

Task item: Recorded IC50 of "CCOc1ccccc1S(=O)(=O)NC(=O)c1cc2ccc(N3CC(C)(F)C3)cc2o1" , please.
Reply: 1.45e-06

Task item: Recorded IC50 of "CCc1csc(C)c1S(=O)(=O)NC(=O)c1cc2c(F)cc(N3CCC3)cc2o1" , please.
Reply: 6.04e-07

Task item: Recorded IC50 of "CCc1ccc2cccc(S(=O)(=O)NC(=O)c3cc4c(F)cc(N5CCC5)cc4o3)c2n1" , please.
Reply: 6.68e-08
